B1: CASP6 (parent)
chain: TCADRDNLTRRFSDLGFEVKCFND

variants of: B1; assay: protein stability index of a GFP-peptide fusion (GPS, HEK-293T) (PSI 1-6); higher = more stable; details: c terminus: a fixed tail appended;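 further: lentivirally expressed fusions sorted by FACS into six bins by GFP to DsRed ratio, PSI derived from sequencing read proportions per bin multiplied by bin number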
METRIC: protein stability index
// return a plain number; no unit text

CHAIN_SEQUENCE	protein stability index
RCADRDNLTRRFSDLGFEVKCFND [T1R]	3.06
TCADRDNLTRRFSKLGFEVKCFND [D14K]	3.36
TCADRDNLTRRFSSLGFEVKCFND [D14S]	2.46
TCADRDNLTRRFSDLGFEVQCFND [K20Q]	3.37

Consider the variant TCADRDNLTRRFSDLGFEVTCFND [K20T] and give its measured protein stability index. 3.15
